Attribution: the supplement of paper PMC12042874

- protocol.description: amyloid nucleation score (Sup35N fusion, yeast selection) (log enrichment); library NNK1; higher = more nucleation; inactive = no reads after selection;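 note: zero at mode of non-aggregating sequences after 7 days selection at 30°C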
A collection of substances and their measured amyloid nucleation score
Form rule: numeric answer, no unit written next to it.

Example entries and their recorded answers appear below.
>>> df
              substance                value_kind  readout_number
0        KISVSTVLSLLFGI  amyloid nucleation score             1.3
1  WPTLIINDAFILRRRNMDSE  amyloid nucleation score          -0.223
2      GNLLVMVGNMRSIDKC  amyloid nucleation score           0.326

Data point: IWTFRYVFRIFTCSDGTMVH ; amyloid nucleation score = -0.108

Data point: HDSLMRSGSFNTSVTVEY ; amyloid nucleation score = 0.843

Data point: KSKRWELLPFEVRAARAVGQ ; amyloid nucleation score = -0.024

Data point: MIPDINIFQIIMVTHKLFRY ; amyloid nucleation score = 3.71

Data point: GVKLYDFVNRCCVMNLLAVK ; amyloid nucleation score = 0.428

Data point: TFLITRMCYSTVQKKEVVFW ; amyloid nucleation score = -0.189

Data point: AVYFSSFR ; amyloid nucleation score = 0.522

Data point: DEDERWCLDIVG ; amyloid nucleation score = -0.076

Data point: QNDVSGKLGNKLSSVCSLRR ; amyloid nucleation score = 0.405

Data point: FRSFGVR ; amyloid nucleation score = 0.924

Data point: YVTMYVRMPGRFTTTHMWLI ; amyloid nucleation score = -0.962

Data point: HRVLYIPALDNVVCRDIWRV ; amyloid nucleation score = 1.29

Data point: LIRHVLNLVL ; amyloid nucleation score = -0.139

Data point: ECKWSLKNHYWVYDGLRGGT ; amyloid nucleation score = -0.378

---

- protocol.description: amyloid nucleation score (Sup35N fusion, yeast selection) (log enrichment); library NNK3; higher = more nucleation; inactive = no reads after selection
value.kind: amyloid nucleation score

In [3]: df
Out[3]:
              substance    result
0  PCSSLHCYMWYYVGANCHNL  inactive
1   WKAFNVTPFRGWVNVAVLA  inactive
2  PLRKSGQPSYAMPTRHARCI  inactive
3                LIGSGV  inactive
4  FILSVCYARRDLTLKRTPSR  inactive

Data point: SYLNRPWD ; amyloid nucleation score = inactive

Data point: IYKKNMAGRVDQKIVTQDPP ; amyloid nucleation score = inactive

Data point: YLESGLTS ; amyloid nucleation score = inactive

Data point: SIGWSLCENRRQPGSRWSLP ; amyloid nucleation score = inactive

Data point: QSHIVSRGLAEENTW ; amyloid nucleation score = inactive

Data point: NFIQVMAIIGLFAVHRGCVT ; amyloid nucleation score = 0.758

---

- protocol.description: amyloid nucleation score (Sup35N fusion, yeast selection) (log enrichment); library NNK3; higher = more nucleation; inactive = no reads after selection
value.kind: amyloid nucleation score

>>> df
              substance    result
0              LVFSTSLH  inactive
1                LNAEIL  inactive
2  NENTNLIRLNGTDMRAYKLW  inactive
3      CKEHLHQLFMGRCSTV  inactive
4  ARICIAACIRAICDGFSGRR  inactive

Data point: RVLNAYSLEYKCISSMPWYL ; amyloid nucleation score = 1.49

Data point: WYVYTNIRNVSYDIFDNKKF ; amyloid nucleation score = 1.49

Data point: RSPTNV ; amyloid nucleation score = inactive

Data point: VCFFRVKRSYSNIFYTRRCR ; amyloid nucleation score = inactive

---

- protocol.description: amyloid nucleation score (Sup35N fusion, yeast selection) (log enrichment); library NNK2; higher = more nucleation; inactive = no reads after selection
value.kind: amyloid nucleation score

Example entries and their recorded answers appear below.
              substance                value_kind  result
0  DRTKNFLCMMKRGFLSKIPW  amyloid nucleation score   0.227
1  AGSGFRSATWYRASTWMAFG  amyloid nucleation score    2.93
2  SRCEVNTWLLILSGGITPMN  amyloid nucleation score   0.722
3  WAIRPSRYYITAYAVELHCD  amyloid nucleation score    9.11
4  VTVVWESDSFRYVYWLNRLE  amyloid nucleation score   0.926

Data point: TKMVCSKRMFVECVLNLF ; amyloid nucleation score = 0.221

Data point: MLVMTMLWKMFSVAG ; amyloid nucleation score = 0.432

Data point: LFSVVLVGGARRSYLRGGPG ; amyloid nucleation score = 0.611

Data point: RSLLVEFRRYKQRH ; amyloid nucleation score = 6.24

Data point: FSRICKAMYQKSGYKINGIN ; amyloid nucleation score = -0.283

Data point: MGIMPQITLDLNLLYLGKVL ; amyloid nucleation score = 0.14

Data point: SAMLDRFYGVRFTMFCRAEH ; amyloid nucleation score = 0.299

Data point: SKFDLYAKFMIRINRLFVLW ; amyloid nucleation score = -1.59

Data point: FNLADSTSSVTP ; amyloid nucleation score = 0.048

Data point: HEHSDVRKKVGWMAFWR ; amyloid nucleation score = 4.42

Data point: DIDGWCTIYMDIVYMKTCPY ; amyloid nucleation score = 0.262

Data point: SISSLLLRLRGTV ; amyloid nucleation score = -0.305

Data point: FYECNMSQVRDFPLHMYRYS ; amyloid nucleation score = inactive

Data point: IRVTCLLGL ; amyloid nucleation score = -0.055

Data point: RMYLVYNFLRLDLSARVVLA ; amyloid nucleation score = inactive

Data point: YGPYSLSSF ; amyloid nucleation score = -0.105

Data point: THVLIFFMVLDLGPFKTGAD ; amyloid nucleation score = -0.441

Data point: CTYVYESRHQGIGVLASLSN ; amyloid nucleation score = -0.784

Data point: NNRYELCSSQH ; amyloid nucleation score = inactive

Data point: YRLYDRENSAICYISYTLLL ; amyloid nucleation score = 2.36

---

- protocol.description: amyloid nucleation score (Sup35N fusion, yeast selection) (log enrichment); library NNK3; higher = more nucleation; inactive = no reads after selection
value.kind: amyloid nucleation score

Example entries and their recorded answers appear below.
>>> df
              substance                value_kind    result
0      HTYDCAAFCPAGAGNR  amyloid nucleation score  inactive
1  SCSIIYRPPSIWRYSKRTSL  amyloid nucleation score  inactive
2  TWWWDTKLVRRPCSRGWVTC  amyloid nucleation score  inactive
3  FNAGYWGMSSKVSNESRWVY  amyloid nucleation score  inactive
4               CWLYFLS  amyloid nucleation score  inactive
5  GSTGVIDDLSKVHCGGMCVD  amyloid nucleation score  inactive

Data point: YLWPLFFSFE ; amyloid nucleation score = inactive

Data point: AITYTTSLKVSFVSKGVSGA ; amyloid nucleation score = 0.614

Data point: VLSCVAIRSYILHKVSVGIC ; amyloid nucleation score = inactive

---

- protocol.description: amyloid nucleation score (Sup35N fusion, yeast selection) (log enrichment); library NNK3; higher = more nucleation; inactive = no reads after selection
value.kind: amyloid nucleation score

Example entries and their recorded answers appear below.
              substance    result
0    EILISNCEVDRRLYRGGN    -0.618
1        CAPLSVVWNSRGFM  inactive
2  IYCPNIILLVKRHGVFQMFL       2.3
3  VVWQTHQVHMVMYERVCTWD  inactive
4  SKMRRSFCPIWFSRWSFLST  inactive

Data point: RAHPALVWMIARTKSSSICL ; amyloid nucleation score = inactive

Data point: ISNGVNPGVFDAVSWLDWAV ; amyloid nucleation score = inactive

Data point: TPMWMGT ; amyloid nucleation score = inactive

Data point: ICSFRTWA ; amyloid nucleation score = 0.978

---

A collection of substances and their measured amyloid nucleation score
- protocol.description: amyloid nucleation score (Sup35N fusion, yeast selection) (log enrichment); library NNK1; higher = more nucleation; inactive = no reads after selection
Form rule: numeric answer, no unit written next to it.

>>> df
              substance  readout_number
0  SCPVLHAVPNYCAKALLSLR          -0.794
1            LLMLGLLSQH           0.427
2              VNVLRTII           0.255
3               VTSWDMS           0.016
4                APRAAN          -0.126

Data point: NLKADRFDHGSPEVVSLSFI ; amyloid nucleation score = -0.027

Data point: CLYPVLQVPMCGNMAERQGV ; amyloid nucleation score = 0.074

Data point: CNLIYCTFDYLNFWDYYTID ; amyloid nucleation score = 6.64
